Value source: patent US4072685A

Test system: reserpinic rigidity
assay.summary: Antagonism against reserpinic rigidity (electromyogram provoked by dorsiflexion of the foot)
Assay type: in vivo, rats
Set-up: key: expressed in an increasing number of + as a function of the dose in mg/Kg; ++: expressed in an increasing number of + as a function of the dose in mg/Kg; +++: expressed in an increasing number of + as a function of the dose in mg/Kg
run.parameters: 20 mg/kg, i.v., rats
Structures can show the parent of a compound that is named as a salt.
measured.parameter: Antagonism against reserpine

Look over these answered cases.
CC(=O)Oc1ccc(C2CCCN(Cc3ccccc3)C2)cc1OC(C)=O (centres unmarked) [Example 6, oxalate] : +++
CN1CCCC(c2ccc(O)c(O)c2)C1 (centres unmarked) [Example 1, hydrobromide] : ++
Oc1ccc(C2CCCN(Cc3ccccc3)C2)cc1O (centres unmarked) [Example 5, oxalate] : +++
CC(C)N1CCCC(c2ccc(O)c(O)c2)C1 (centres unmarked) [Example 9, hydrobromide] : +

[Q] What Antagonism against reserpine appears in the records for this molecule with reserpinic rigidity? CC(=O)Oc1ccc(C2CCCN(C)C2)cc1OC(C)=O (centres unmarked) [Example 2, oxalate]
[A] ++

[Q] Then CCCN1CCCC(c2ccc(OC(C)=O)c(OC(C)=O)c2)C1 (centres unmarked) [Example 8, oxalate] ?
[A] ++

[Q] Field entry: CCCN1CCCC(c2ccc(O)c(O)c2)C1 (centres unmarked) [Example 4, hydrobromide]
[A] +

[Q] Quick one: CCN1CCCC(c2ccc(O)c(O)c2)C1 (centres unmarked) [Example 3, hydrobromide]
[A] +
